# test-method-notes: Oral bioavailability in Han Wistar rat at 5 mg/kg
# Format: ADME, organism-based
# condition-context: in vivo
observed-property: bioavailability
Please answer using a numeric value trailed by its unit.

Input Cc1cc2ncnn2cc1Nc1ncc2c(n1)n(C1CCOCC1)c(=O)n2C [AZD-7648] . Output bioavailability: 104%

* * *

# test-method-notes: Oral bioavailability in Beagle dog at 2 mg/kg
# Assay type: ADME, organism-based, Canis lupus familiaris
# condition-context: in vivo
observed-property: bioavailability (%)
One number for each entry, in %.

Input Cc1cc2ncnn2cc1Nc1ncc2c(n1)n(C1CCOCC1)c(=O)n2C [AZD-7648] . Output bioavailability: 93

* * *

# test-method-notes: physchem
# condition-context: buffer, pH 7.4
Assign logD to each entry below.
Answers are plain numbers.

Reference set, count: 8
>>> data_value("Cc1cc2ncnn2cc1Nc1ncc2c(n1)n(C1CCCCC1)c(=O)n2C")
3.1
>>> data_value("Cc1cc2ncnn2cc1Nc1ncc2c(n1)n(C1CCC(F)(F)CC1)c(=O)n2C")
2
>>> data_value("COc1ccc(Nc2ncc3c(n2)n(C2CCCC2)c(=O)n3C)c(C)c1")
3.7
>>> data_value("COc1ccc(Nc2ncc3[nH]c(=O)n([C@H]4CC[C@H](O)CC4)c3n2)c(C)c1")
2.3
>>> data_value("COc1ccc(Nc2ncc3c(n2)n([C@H]2CC[C@H](O)CC2)c(=O)n3C)c(C)c1")
2.3
>>> data_value("COc1ccc(Nc2ncc3c(n2)n([C@H]2CC[C@H](O)CC2)c(=O)n3C)cc1")
2.3
>>> data_value("Cn1c(=O)n([C@H]2CC[C@H](O)CC2)c2nc(Nc3ccc4ncnn4c3)ncc21")
1.7
>>> data_value("Cc1cc2ncnn2cc1Nc1ncc2c(n1)n(C1CCOCC1)c(=O)n2C")
1.3

Could you now consider this next compound?
Input `Cc1cc2ncnn2cc1Nc1ncc2c(n1)n([C@H]1CC[C@@](C)(O)CC1)c(=O)n2C` . Output logD: 1.9

Every entry's value here was drawn from ChEMBL document CHEMBL4402552.
